Data origin, for the record: the supplement of paper PMC9732359

- protocol_text: protein stability index of a GFP-peptide fusion (yeast GPS) (PSI 1-4); higher = more stable; sorted into four equal gates, so the index is relative within each strain
- test_conditions: pdr5∆
reported_metric: protein stability index

chain_sequence: YKEQIIQGFYWAVKEGP [SNU114]
result_number: 2.38
--
chain_sequence: GSGAANENPYNNGVSNL [COR1]
result_number: 2.94
--
chain_sequence: LDPYERAIYSYLSGAIP [YDL116W/NUP84]
result_number: 3.11
--
chain_sequence: HRINMDKYHPGYFGKVG [RPL28]
result_number: 3.41
--
chain_sequence: GFERLTVNEPQMSDKHA [SRB7]
result_number: 3.36
--
chain_sequence: VLRTALVHDGLARGLRE [RPS12]
result_number: 2.79
--
chain_sequence: GSGQPDNDTVVTNDDKS [SRB8]
result_number: 3.29
--
chain_sequence: FTNLGIIVQYLTKFRQK [RGR1]
result_number: 2.64
--
chain_sequence: NVTTILDEIFSGCDSTK [ECM29]
result_number: 2.8
--
chain_sequence: PASKHDKEVVYFDEWTI [RPC34]
result_number: 3.43
--
chain_sequence: TSFDIKREGRNELQEER [POP6]
result_number: 3.02
--
chain_sequence: KSGTSHDAIFSIYKYIH [SNF12]
result_number: 2.66
--
chain_sequence: KDLVTENAYDNPLADAE [PRE4]
result_number: 3.34
--
chain_sequence: TIETFNEAALVVNITHH [RPB5]
result_number: 1.92

====

- protocol_text: protein stability index of a GFP-peptide fusion (yeast GPS) (PSI 1-4); higher = more stable; sorted into four equal gates, so the index is relative within each strain
- test_conditions: doa10∆

chain_sequence: KLWAEIIVKILYYRPHI [GRR1]
protein stability index: 1.4

chain_sequence: DTDKLPIKNRTSKSFSK [SIN4]
protein stability index: 2.83

chain_sequence: TRNPDAPKGSTDPKELY [RPC40]
protein stability index: 3.11

chain_sequence: QLIPIILRQRGPGFKFV [SRB4]
protein stability index: 2.55

chain_sequence: RVHANLQCISQINQGVP [SNF11]
protein stability index: 1.49

chain_sequence: FKLSSESVIEQIVKYAR [RPS13]
protein stability index: 2.54

chain_sequence: STAFVPTIEYVQCPTVI [ARP9]
protein stability index: 1.68

chain_sequence: KRKYLDIPIDEMTLPTS [SSN2]
protein stability index: 3.1

chain_sequence: RYNAKAIGSGSEGAQAE [PUP2]
protein stability index: 3.24

chain_sequence: QQKANLLSSSNFEATKK [COR1]
protein stability index: 2.27

chain_sequence: QKYTKEMIDSHIKEASE [SNF2]
protein stability index: 2.93

chain_sequence: ILDGQDVEENRSEFIES [YJR042W/NUP85]
protein stability index: 3.13

chain_sequence: GILRRKSESDELQMRSF [RRP4]
protein stability index: 3.06

chain_sequence: QAPTELELQVAQAFVEL [RPS7A]
protein stability index: 2.53

chain_sequence: DSGIGSNGSGIVAAGGG [CSL4]
protein stability index: 3.45

chain_sequence: IKKFAKLHMGTDDVRLA [RPL31A]
protein stability index: 1.7

chain_sequence: ESILQMNQGEGEPEAGN [RPC34]
protein stability index: 3

chain_sequence: SYDCTGVNELAPIPKGR [POP1]
protein stability index: 2.84

chain_sequence: DHGDGILLIDSEIARTY [RPN9]
protein stability index: 2.73

chain_sequence: TTDANGSKENYQELGSL [MED2]
protein stability index: 2.86

chain_sequence: KPTSHKQLQQPKSSPLK [SIR4]
protein stability index: 2.87

chain_sequence: SRYEPKVFDCGDNIVMS [PRE7]
protein stability index: 2.49

chain_sequence: QHPFPLAHSQHRCAIRS [SSN2]
protein stability index: 1.76

chain_sequence: ANVIKALAFCEIGITQQ [RRP4]
protein stability index: 1.36

chain_sequence: HFTEIKLNKVDKNELQQ [SIR3]
protein stability index: 2.86

chain_sequence: DHFLSMCQNPMQKPVPF [FAS1]
protein stability index: 2.93

chain_sequence: LDDEKIFSQTTNSTYNP [YJL039C/NUP192]
protein stability index: 2.78

chain_sequence: TANTGTIGKRRTTTNTT [TAF14]
protein stability index: 3.18

chain_sequence: LYDSLASTPSIRPDGRL [RRP42]
protein stability index: 2.64

chain_sequence: KVFDTLTRFSHDADLEV [RPN1]
protein stability index: 2.44

chain_sequence: FRENMSKEETVDFIKHS [PRE3]
protein stability index: 3.11

====

- protocol_text: protein stability index of a GFP-peptide fusion (yeast GPS) (PSI 1-4); higher = more stable; sorted into four equal gates, so the index is relative within each strain
- test_conditions: pdr5∆
Criterion: protein stability index meeting or surpassing 3. Met: True. Not met: False.

chain_sequence: SENHTESDAPPKSTAPI [YOR098C/NUP1]
group_label: False

chain_sequence: SSIDRGFGRCETRRKTT [RET1]
group_label: False

chain_sequence: NDLVKARDLLDDLEKTL [RPN9]
group_label: True

chain_sequence: ISDIPYVISLSYTDAQD [YMR129W/POM152]
group_label: False

chain_sequence: VIIRRLKTRDWIVVLPW [POP1]
group_label: False

chain_sequence: ELDAQTLPGDDELDQEI [RPT5]
group_label: True

chain_sequence: SLTPTQSDSAKVEIKKV [PRP28]
group_label: True

chain_sequence: KPMTAYARADTHFLLNI [RRP6]
group_label: False

chain_sequence: PKKALKVKAGVRSANED [RRP43]
group_label: False

chain_sequence: HLVMRAISLGLLKGSID [RPN9]
group_label: False

chain_sequence: EENEDNDGNNRTNNVPM [NUT1]
group_label: True

chain_sequence: LQKAVRGHVLQFEWHQN [SNF2]
group_label: False

====

- protocol_text: protein stability index of a GFP-peptide fusion (yeast GPS) (PSI 1-4); higher = more stable; sorted into four equal gates, so the index is relative within each strain
- test_conditions: san1∆
The following sequences are shown together with reported protein stability index values.
reported_metric: protein stability index

chain_sequence: IECFKPGDIVRAQVLSL [CSL4]
reported_metric: protein stability index
result_number: 2.04

chain_sequence: NITDYETHPDNSNKQAV [BRR2]
reported_metric: protein stability index
result_number: 2.73

chain_sequence: QDNHHITKVTENLFSKE [YMR129W/POM152]
reported_metric: protein stability index
result_number: 2.99

chain_sequence: ASLTAARTAANSIYCPT [RPN6]
reported_metric: protein stability index
result_number: 2.84

chain_sequence: NFPEASKLSEHLNHYIL [YCG1]
reported_metric: protein stability index
result_number: 2.66

chain_sequence: KHFIQGGSFGNREEFIN [RPL7A]
reported_metric: protein stability index
result_number: 1.21

chain_sequence: GSDKQMFTQIYLERIEL [YML103C/NUP188]
reported_metric: protein stability index
result_number: 1.62

====

The following sequences are shown together with reported protein stability index values.
- protocol_text: protein stability index of a GFP-peptide fusion (yeast GPS) (PSI 1-4); higher = more stable; sorted into four equal gates, so the index is relative within each strain
- test_conditions: ubr1∆
reported_metric: protein stability index

chain_sequence: MTDMQIQWYKSLLEKDI [ISW2]
reported_metric: protein stability index
result_number: 2.78

chain_sequence: QAPTELELQVAQAFVEL [RPS7A]
reported_metric: protein stability index
result_number: 2.45

chain_sequence: PKKHLSETADETLENNI [RPN11]
reported_metric: protein stability index
result_number: 2.84

chain_sequence: VSALDKCIKYSEKLITK [ECM29]
reported_metric: protein stability index
result_number: 1.92

chain_sequence: PAKIVNFEKPKNSSQLL [RPN5]
reported_metric: protein stability index
result_number: 3.2

chain_sequence: KTPVFTTGGDYILSLVS [YMR129W/POM152]
reported_metric: protein stability index
result_number: 1.87

chain_sequence: YSLHQIRKDPNNLSNQL [CSE2]
reported_metric: protein stability index
result_number: 2.77

chain_sequence: KDIIDPKLTSIFERMIE [RPN2]
reported_metric: protein stability index
result_number: 2.66

chain_sequence: VMLKGIVTALLESDVNI [SRP54]
reported_metric: protein stability index
result_number: 1.16

chain_sequence: NVVEADLKRFVDESLLS [QCR2]
reported_metric: protein stability index
result_number: 3.46

chain_sequence: RCNDNLMRSCFYLMVSS [YJL039C/NUP192]
reported_metric: protein stability index
result_number: 1.1

chain_sequence: SYNNTGISDDENDEEDI [RRP4]
reported_metric: protein stability index
result_number: 2.96

chain_sequence: LAVKVHGGSRYATKDGV [QCR2]
reported_metric: protein stability index
result_number: 1.07

chain_sequence: ALPRGARTATVSKKWAA [RPL14A]
reported_metric: protein stability index
result_number: 2.14
